From: PubChem BioAssay (NCATS)

// activity, negative = inhibition lookup, one value per entry
Experiment: Stat Signaling Pathway (AID 446);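 also: ME-180 cervical cancer cells given 40 pM IL-6 alongside compound; SIE-controlled beta-lactamase reporter measured as 460/530 nm FRET emission ratio; % is scaled to controls: 0 for no effect and ±100 for the full control effect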
Settings: ME-180 (cervical carcinoma) SIE beta-lactamase reporter, IL-6 stimulated, 5 h; at 7.69 µM (top of the series) unless noted
Experimental: NCGC Assay Overview: The IL-6/STAT signaling pathway was assayed in ME-180 cervical carcinoma cells by a beta-lactamase reporter gene controlled by a STAT Inducible Element (SIE). This reporter is induced by IL-6 at 40 pM AC50 and inhibited by the pan JAK inhibitor, 2-(1,1-Dimethylethyl)-9-fluoro-3,6-dihydro-7H-benz[h]-imidaz[4,5-f]isoquinolin-7-one, at approximately 10 nM AC50. Plated cells were incubated overnight and on the following day, stimulated with 40 pM IL-6 for 5 hrs. […]
Records with an inconclusive call do not appear.
Give just the numeric value; % need not be written.

Look over these answered cases.
>>> measured_result("COc1ncc2nc(CCc3ccccc3)c(=O)n(CCc3ccccc3)c2n1")
-1.74
>>> measured_result("COc1ccc2[nH]cc(CCNc3ncncc3-c3ccc(C(=O)N(C)C)cc3)c2c1")
4.62
>>> measured_result("COc1ccc2[nH]cc(CCNc3ccnc(-c4cccnc4)n3)c2c1")
-3.13
>>> measured_result("COCC(=O)N1CCC2(CCCN(C(=O)Nc3cccc(C#N)c3)C2)CC1")
-1.02
>>> measured_result("COc1ccc(NC(=O)N2CCC3(CC2)CCN(C(=O)c2cccn2C)CC3)cc1")
2.55

# molecule COc1ccc(C(=O)N2CCC3(CCCN(C(=O)NC(C)C)C3)CC2)cc1 ; its activity, negative = inhibition = 0.47

Briefly, activity, negative = inhibition measured for O=C(c1cccc(F)c1)N1CCC2(CC1)CN(c1ccccn1)C2 : -12.3

For record c1ccc(CNc2ncncc2-c2ccc3c(c2)OCO3)cc1 the listed activity, negative = inhibition is -0.121

Query COC(=O)N1CCC2(CC1)CCN(c1ncccn1)CC2 yields activity, negative = inhibition of -4.92

For O=C(c1csnn1)N1CCC[C@@]2(CCN(Cc3cc(C(F)(F)F)cc(C(F)(F)F)c3)C2)C1 the molecule record lists activity, negative = inhibition as -8.74

* * *

assay: qHTS for differential inhibitors of proliferation of Plasmodium falciparum line D10 (AID 1877); conditions: series mostly up to 28.7 µM;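 also: parasites grown with compound for 72 h before DNA staining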; also: potency is read from the fitted curve at half-maximal effect
Inconclusive results are not listed. The source made the active and inactive calls. Calls come from the whole dose curve; as a rule, active = well fitted curve in the direction sought with a large enough effect; inconclusive = small, poorly fitted or top-dose-only effect, or another doubt; inactive = no such curve, though single readings can be large or run the other way.
Endpoint label: Potency

>>> measured_result("CN(C)CCCO[C@H]1C([C@H](O)CO)O[C@@H]2OC(C)(C)O[C@@H]21 (some centres undefined)")
"inactive"
>>> measured_result("CNC(=O)[C@H]1O[C@@H](n2cnc3c(N)ncnc32)[C@H](O)[C@H]1O")
"inactive"
>>> measured_result("CN1CCc2c(cc(O)c(O)c2Cl)C(c2cccc(Cl)c2)C1 (centres undefined)")
"10 µM (active)"
>>> measured_result("CC#C[C@]1(O)CC[C@H]2C3CCC4=CC(=O)CCC4=C3[C@@H](c3ccc(N(C)C)cc3)C[C@@]21C (some centres undefined)")
"10 µM (active)"

* * *

assay: qHTS Assay for Lipid Storage Modulators (AID 1519); conditions: Drosophila S3 cells, BODIPY lipid droplet/cell ratio, laser cytometry; measured here: cell count channel max response; cells loaded with oleic acid
Inconclusive results are not listed.
Recorded max response for the following compounds
# number only, unit % dropped from output

Reference set, count: 4
>>> measured_result("COc1ccc(C(=O)N2CCC3(CCCN(C(c4ccccc4)c4ccccc4)C3)CC2)cc1")
2.37
>>> measured_result("N#Cc1cccc(NC(=O)N2CC[C@@]3(CCCN(C(=O)c4ccco4)C3)C2)c1")
4.12
>>> measured_result("CC(C)CN1CCC2(CC1)CCN(C(=O)c1cc(C(F)(F)F)cc(C(F)(F)F)c1)CC2")
-18.2
>>> measured_result("O=C(c1cc(C(F)(F)F)cc(C(F)(F)F)c1)N1CCC2(CC1)CCN(c1ncccn1)CC2")
13.8

Lookup result for COc1cccc(Nc2ncc3nc(C)c(=O)n(C[C@H]4CCCO4)c3n2)c1 ; measured max response: -4.6

Record summary for COC(=O)N1CCC2(CC1)CN(c1ccncc1)C2 : reported max response = 7.79

For reference, reported max response for COc1ccc(C(=O)N2CCC3(CC2)CCN(c2ccncc2)CC3)cc1 stands at 12.5

The compound listed as O=C(c1ccncc1)N1CCC2(CC1)CCN(c1ccccn1)CC2 shows max response equal to 10.7

The compound listed as Cc1noc(C)c1-c1nc(NC2CCNCC2)c2ccccc2n1 shows max response equal to 11.4
